- assay.remarks: Hepatocyte Stability Assay, human hepatocytes
- Type: in vitro ADME
- test.conditions: human hepatocytes, 120 min
readout.kind: Hepatocyte Stability Human % rem. 120 min

Before answering, review these 5 worked examples.
compound | result
CN1CCN(C(=O)COc2cnc(N[C@H]3CC[C@@H](Oc4nc(N5CCOCC5)cc5ncccc45)CC3)nc2)CC1 [Compound 62] | F (% remaining = 25-50%)
CS(=O)(=O)c1cnc2cc(N3CCOCC3)nc(O[C@H]3CC[C@@H](Nc4ncnc5ccoc45)CC3)c2c1 [Compound 204b] | G (% remaining = 50-75%)
O=C(COc1cnc(N[C@H]2CC[C@@H](Oc3nc(N4CCOCC4)cc4ncccc34)CC2)nc1)N1CCNCC1 [Compound 63] | F (% remaining = 25-50%)
NCCOc1cnc(N[C@H]2CC[C@@H](Oc3nc(N4CCOCC4)cc4ncccc34)CC2)nc1 [Compound 65] | F (% remaining = 25-50%)
CN(C)C(=O)Cn1c(=O)n(C2CCOCC2)c2nc(N[C@H]3CC[C@@H](Oc4nc(N5CCOCC5)cc5ncccc45)CC3)ncc21 [Compound 97] | G (% remaining = 50-75%)

# get_value(readout='Hepatocyte Stability Human % rem. 120 min', item= CC(=O)NCCOc1cnc(N[C@H]2CC[C@@H](Oc3nc(N4CCOCC4)cc4ncccc34)CC2)nc1 [Compound 66] )
G (% remaining = 50-75%)

----------
- Test system: pDNA-PK induction in HCT116 tumour spheroids
- assay.remarks: Multicellular tumour spheroid + radiation, pDNA-PK (ser2056) inhibition, immunohistochemical endpoint, HCT116
- Assay type: cell-based
- test.conditions: Homo sapiens, HCT-116; 20 Gy, 2 hours following radiation, 20% O2; Example 9 Study 2; read-out: Spheroid Cell line: HCT116 Immunohistochemical endpoint pDNA-PK inhibition EC50
pEC50: −log10 of the molar value.
readout.kind: pEC50

molecule | result
CN(C)C(=O)Cn1cccc1C(=O)N[C@H]1CC[C@@H](Oc2nc(N3CCOCC3)cc3ncccc23)CC1 [Compound 146] | 5.00 to 6.00
CS(=O)(=O)c1cnc2cc(N3CCOCC3)nc(O[C@H]3CC[C@@H](Nc4ncccn4)CC3)c2c1 [Compound 200b] | 5.00 to 6.00
CN(C)C(=O)Cn1c(=O)n(C)c2nc(N[C@H]3CC[C@@H](Oc4nc(N5CCOCC5)cc5ncccc45)CC3)ncc21 [Compound 102] | 6.30 to 8.00
CN(C)C(=O)COc1cnc(N[C@H]2CC[C@@H](Oc3nc(N4CCOCC4)cc4ncc(C(=O)O)cc34)CC2)nc1 [Compound 180] | 4.00 to 5.00
NC(=O)c1cnc2cc(N3CCOCC3)nc(O[C@H]3CC[C@@H](n4ccnc4)CC3)c2c1 [Compound 166] | 4.00 to 5.00
O=C(COc1cnc(N[C@H]2CC[C@@H](Oc3nc(N4CCOCC4)cc4ncccc34)CC2)nc1)N1CCNCC1 [Compound 63] | 5.00 to 6.00

Moving on to the next molecule.
# get_value(readout='pEC50', item= O=C(O)COc1cnc(N[C@H]2CC[C@@H](Oc3nc(N4CCOCC4)cc4ncc(C(=O)O)cc34)CC2)nc1 [Compound 181] )
4.00 to 5.00

----------
- Tested on: FaDu cell line
- assay.remarks: Prodrug Activation in Hypoxic Stirred Tumour Cell Suspensions
- test.conditions: 10 μM, 4 hours, 5% O2
readout.kind: Fraction of prodrug converted to active form, Oxic 5% O2

Before answering, review these 5 worked examples.
compound | measured.on | result
Cc1cc(C#N)nc(N[C@H]2CC[C@@H](Oc3nc(N4CCOCC4)cc4ncc(OCc5cnc([N+](=O)[O-])n5C)cc34)CC2)n1 [LFA2093] | FaDu cell line | B (B is 0.05 to 0.15)
CN(C)Cc1cnc(N[C@H]2CC[C@@H](Oc3nc(N4CCOCC4)cc4ncc(OCc5cnc([N+](=O)[O-])n5C)cc34)CC2)nc1 [LFA2086] | FaDu cell line | D (D is 0 to 0.02)
Cn1c(COc2cnc3cc(N4CCOCC4)nc(O[C@H]4CC[C@@H](NC(=O)c5ncccn5)CC4)c3c2)cnc1[N+](=O)[O-] [LFA116] | FaDu cell line | C (C is 0.02 to 0.05)
Cn1c(COc2cnc3cc(N4CCOCC4)nc(O[C@H]4CC[C@@H](c5cnccn5)CC4)c3c2)cnc1[N+](=O)[O-] [LFA2042] | FaDu cell line | C (C is 0.02 to 0.05)
CC(Oc1cnc2cc(N3CCOCC3)nc(O[C@H]3CC[C@@H](Nc4ncc(OCCN(C)C)cn4)CC3)c2c1)c1cnc([N+](=O)[O-])n1C (stereo partly drawn) [LFA2087] | FaDu cell line | D (D is 0 to 0.02)

Query the reported Fraction of prodrug converted to active form, Oxic 5% O2 for FaDu cell line; item: Cc1cc(C#N)nc(N[C@H]2CC[C@@H](Oc3nc(N4CCOCC4)cc4ncc(OC(C)c5cnc([N+](=O)[O-])n5C)cc34)CC2)n1 (stereo partly drawn) [LFA2094]
B (B is 0.05 to 0.15)

Also check Cc1cc(C)nc(N[C@H]2CC[C@@H](Oc3nc(N4CCOCC4)cc4ncc(OCc5cnc([N+](=O)[O-])n5C)cc34)CC2)n1 [LFA2081]
B (B is 0.05 to 0.15)

Also check CC(c1cnn(C)c1[N+](=O)[O-])N(c1cnc2cc(N3CCOCC3)nc(O[C@H]3CC[C@@H](Nc4ncccn4)CC3)c2c1)S(C)(=O)=O (stereo partly drawn) [LFA2056]
C (C is 0.02 to 0.05)

Also check CN(C)C(=O)COc1cnc(N[C@H]2CC[C@@H](Oc3nc(N4CCOCC4)cc4ncc(OCc5cnc([N+](=O)[O-])n5C)cc34)CC2)nc1 [LFA114]
B (B is 0.05 to 0.15)

Also check CC(c1cnc([N+](=O)[O-])n1C)N(c1cnc2cc(N3CCOCC3)nc(OC3CCC(Nc4ncc(N5CCN(CC(F)(F)F)CC5)cn4)CC3)c2c1)S(C)(=O)=O (stereo not drawn) [LFA2046]
D (D is 0 to 0.02)

Also check CC(Oc1cnc2cc(N3CCOCC3)nc(O[C@H]3CC[C@@H](Nc4ncc(CN(C)C)cn4)CC3)c2c1)c1cnc([N+](=O)[O-])n1C (stereo partly drawn) [LFA2085]
D (D is 0 to 0.02)

Also check CC(c1cnc([N+](=O)[O-])n1C)N(c1cnc2cc(N3CCOCC3)nc(O[C@H]3CC[C@@H](Nc4ncc(OC5CCN(C)C5)cn4)CC3)c2c1)S(C)(=O)=O (stereo partly drawn) [LFA2068]
D (D is 0 to 0.02)

Also check Cn1c(COc2cnc3cc(N4CCOCC4)nc(O[C@H]4CC[C@@H](N(C)c5ncccn5)CC4)c3c2)cnc1[N+](=O)[O-] [LFA2071]
B (B is 0.05 to 0.15)

Also check Cn1c(CN(c2cnc3cc(N4CCOCC4)nc(O[C@H]4CC[C@@H](Nc5nccnc5C#N)CC4)c3c2)S(C)(=O)=O)cnc1[N+](=O)[O-] [LFA2102]
D (D is 0 to 0.02)

Also check CC(c1cnc([N+](=O)[O-])n1C)N(c1cnc2cc(N3CCOCC3)nc(O[C@H]3CC[C@@H](Nc4cncc(C(F)(F)F)n4)CC3)c2c1)S(C)(=O)=O (stereo partly drawn) [LFA2099]
D (D is 0 to 0.02)

Also check CN1CCN(CCOc2cnc(N[C@H]3CC[C@@H](Oc4nc(N5CCOCC5)cc5ncc(N(Cc6cnc([N+](=O)[O-])n6C)S(C)(=O)=O)cc45)CC3)nc2)CC1 [LFA2059]
D (D is 0 to 0.02)

Also check CC(c1cnc([N+](=O)[O-])n1C)N(c1cnc2cc(N3CCOCC3)nc(O[C@H]3CC[C@@H](Nc4nccnc4C#N)CC3)c2c1)S(C)(=O)=O (stereo partly drawn) [LFA2100]
D (D is 0 to 0.02)

Also check Cn1c(CN(c2cnc3cc(N4CCOCC4)nc(O[C@H]4CC[C@@H](Nc5ccc(F)cn5)CC4)c3c2)S(C)(=O)=O)cnc1[N+](=O)[O-] [LFA2010]
C (C is 0.02 to 0.05)

Also check CC(c1cnc([N+](=O)[O-])n1C)N(c1cnc2cc(N3CCOCC3)nc(OC3CCC(c4cnccn4)CC3)c2c1)S(C)(=O)=O (stereo not drawn) [LFA2043]
D (D is 0 to 0.02)

----------
- System: FaDu cell line
- assay.remarks: Prodrug Activation in Hypoxic Stirred Tumour Cell Suspensions
- test.conditions: 10 μM, 4 hours, 5% O2
readout.kind: Fraction of prodrug converted to active form, Oxic 5% O2

molecule | result
CC(c1cnn(C)c1[N+](=O)[O-])N(c1cnc2cc(N3CCOCC3)nc(O[C@H]3CC[C@@H](Nc4ncc(OCCN5CCOCC5)cn4)CC3)c2c1)S(C)(=O)=O (stereo partly drawn) [LFA2077] | B (B is 0.05 to 0.15)
Cn1c(Cn2nnc(-c3cnc4cc(N5CCOCC5)nc(O[C@H]5CC[C@@H](Nc6ncccn6)CC5)c4c3)n2)cnc1[N+](=O)[O-] [LFA121] | B (B is 0.05 to 0.15)
